System: 4T1 cells, breast cancer cells
Test: Tumor weight in 4T1 tumor-bearing mice
Assay type: in vivo, BALB/c nude mice
Details: day 19 of administration; intraperitoneal; MET 250, 2DG 500, IP6 500, Ins 500 mg/kg (four-combination: IP6 250 + Ins 250 mg/kg); control 1.244±0.22; mean±SD
Where a name gives a salt, the structure may show the parent alone.
Endpoint: tumor weight
Report as: number unit

compound="CN(C)C(=N)NC(=N)N [MET, Metformin HCl]" tgt="4T1 cells, breast cancer cells" recorded_result="1.134 ± 0.15 g"
compound="O=P(O)(O)O[C@H]1[C@H](OP(=O)(O)O)[C@@H](OP(=O)(O)O)[C@H](OP(=O)(O)O)[C@@H](OP(=O)(O)O)[C@H]1OP(=O)(O)O [IP6, inositol hexaphosphate]" tgt="4T1 cells, breast cancer cells" recorded_result="0.874 ± 0.18 g"
compound=O[C@H]1[C@H](O)[C@@H](O)[C@H](O)[C@@H](O)[C@H]1O tgt="4T1 cells, breast cancer cells" recorded_result="0.904 ± 0.20 g"

query: Using known records, supply tumor weight for OCC1O[C@H](O)C[C@@H](O)[C@@H]1O (mixture of isomers)
result: 1.092 ± 0.18 g

* * *

Measured incidence of lung metastasis by item
Tested on: 4T1 cells, breast cancer cells
Experiment: Incidence of lung metastasis in 4T1 tumor animal model
Type: in vivo, BALB/c nude mice
Settings: 10 animals per group; intraperitoneal; control 100%
Structures can show the parent of a compound that is named as a salt.
Express your answer in %, writing the number without its unit.

Example entries and their recorded answers appear below.
compound="CN(C)C(=N)NC(=N)N [MET, Metformin HCl]" tgt="4T1 cells, breast cancer cells" recorded_result=100
compound="OCC1O[C@H](O)C[C@@H](O)[C@@H]1O (mixture of isomers) [2DG, 2-deoxy-D-glucose]" tgt="4T1 cells, breast cancer cells" recorded_result=100
compound="O[C@H]1[C@H](O)[C@@H](O)[C@H](O)[C@@H](O)[C@H]1O [Ins, myo-inositol]" tgt="4T1 cells, breast cancer cells" recorded_result=90

// next item, incidence of lung metastasis requested
query: Specify the recorded incidence of lung metastasis for O=P(O)(O)O[C@H]1[C@H](OP(=O)(O)O)[C@@H](OP(=O)(O)O)[C@H](OP(=O)(O)O)[C@@H](OP(=O)(O)O)[C@H]1OP(=O)(O)O [IP6, inositol hexaphosphate] , system: 4T1 cells, breast cancer cells.
result: 90
